The reported numbers originate from patent US20210253557A1.

- study_system: human V2 receptor (Homo sapiens)
- Sequence (P30518 whole entry): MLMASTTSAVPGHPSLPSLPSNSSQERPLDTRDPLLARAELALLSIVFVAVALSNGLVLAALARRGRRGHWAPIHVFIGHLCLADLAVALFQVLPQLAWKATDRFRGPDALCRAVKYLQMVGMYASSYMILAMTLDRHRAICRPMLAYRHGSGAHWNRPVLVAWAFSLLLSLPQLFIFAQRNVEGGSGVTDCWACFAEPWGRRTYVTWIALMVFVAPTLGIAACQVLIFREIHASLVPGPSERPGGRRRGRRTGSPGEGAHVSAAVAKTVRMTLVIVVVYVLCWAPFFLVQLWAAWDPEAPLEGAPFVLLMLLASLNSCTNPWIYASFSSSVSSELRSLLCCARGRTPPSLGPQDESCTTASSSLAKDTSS
- test_name: Cellular in vitro assay for determining vasopressin receptor activity (V2, CRE-luciferase)
- run_parameters: CHO cell line transfected with the human V2 receptor; [Arg8]-vasopressin at EC50 concentration; read-out: IC50 hV2
- Method: B-1. Cellular In Vitro Assay for Determining Vasopressin Receptor Activity The identification of agonists and antagonists of the V1a and V2 vasopressin receptors from humans, rats and dogs as well as the quantification of the activity of the compounds of the invention is carried out using recombinant cell lines. […] The bioluminescence of the cell lines is detected using a suitable luminometer [Milligan G, Marshall F, Rees S, Trends in Pharmacological Sciences 17, 235-237 (1996)]. […]
Counter-ions that a name gives are not always drawn.
Consider the following compounds and their measured pIC50 readings.
The read-out pIC50 is expressed as -log10 of concentration in moles per litre.

Example cases with answers are listed next.
compound | observed_measurement
O=C1NC(c2nc(Cn3nc(-c4ccc(Cl)cc4)n(C[C@H](O)C(F)(F)F)c3=O)nn2-c2ncccc2OC(F)(F)F)CO1 (single isomer, unassigned) [Example 119] | 6.06
COc1ccccc1-n1nc(Cn2nc(-c3ccc(Cl)cc3)n(C[C@H](OC(N)=O)C(F)(F)F)c2=O)nc1C(C)OC(N)=O (single isomer, unassigned) [Example 40] | 8.20

Task: Provide pIC50, recorded with human V2 receptor (Homo sapiens), of CNc1ccncc1-n1nc(Cn2nc(-c3ccc(Cl)cc3)n(C[C@H](O)C(F)(F)F)c2=O)nc1C(C)NC(C)=O (mixture of isomers) [Example 125, hydrochloride]
Output: 6.23

---

- study_system: human V1a receptor (Homo sapiens)
- Construct: expressed in transfected cells; host or cells: CHO K1 (ATCC), also stably transfected with a modified aequorin
- Sequence (P37288 whole entry): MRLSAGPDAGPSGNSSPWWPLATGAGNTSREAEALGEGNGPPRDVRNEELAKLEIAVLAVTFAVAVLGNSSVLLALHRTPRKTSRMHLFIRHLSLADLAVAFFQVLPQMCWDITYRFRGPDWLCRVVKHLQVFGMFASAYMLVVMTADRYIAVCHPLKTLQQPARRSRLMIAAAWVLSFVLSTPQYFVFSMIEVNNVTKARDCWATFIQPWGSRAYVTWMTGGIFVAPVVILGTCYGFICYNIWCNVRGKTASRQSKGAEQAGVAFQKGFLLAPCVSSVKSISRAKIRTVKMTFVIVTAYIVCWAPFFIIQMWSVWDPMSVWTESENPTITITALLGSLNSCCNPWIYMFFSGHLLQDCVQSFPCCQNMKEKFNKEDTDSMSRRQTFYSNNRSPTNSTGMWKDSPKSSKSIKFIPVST
- test_name: Cellular in vitro assay for determining vasopressin receptor activity (V1a, aequorin luminescence)
- Format: cell-based
- run_parameters: selectivity ratio of IC50 hV2 to IC50 hV1a
assay_readout: ratio IC50 hV2/hV1a
Number only, no unit.

compound | ratio IC50 hV2/hV1a
C[C@H](OC(N)=O)c1nc(Cn2nc(-c3ccc(Cl)cc3)n(C[C@H](O)C(F)(F)F)c2=O)nn1-c1ncccc1OC(F)(F)F [Example 22] | 14.4

Task: Find the measured ratio IC50 hV2/hV1a of CC(NS(C)(=O)=O)c1nc(Cn2nc(-c3ccc(Cl)cc3)n(C[C@H](O)C(F)(F)F)c2=O)nn1-c1ccccc1Cl (single isomer, unassigned) [Example 68] and report it.
Output: 4.6

Task: Report ratio IC50 hV2/hV1a, nothing else, for this compound: COc1ccccc1-n1nc(Cn2nc(-c3ccc(Cl)cc3)n(C[C@H](OC(N)=O)C(F)(F)F)c2=O)nc1C(C)OC(N)=O (single isomer, unassigned) [Example 42]
Output: 6.8

Task: Could you please provide reported ratio IC50 hV2/hV1a for C[C@@H](OC(N)=O)c1nc(Cn2nc(-c3ccc(Cl)cc3)n(C[C@H](O)C(F)(F)F)c2=O)nn1-c1ccccn1 [Example 11] ? Thanks!
Output: 2.0

Task: Given the compound CC(=O)NC(C)c1nc(Cn2nc(-c3ccc(Cl)cc3)n(C[C@H](O)C(F)(F)F)c2=O)nn1-c1ncccc1Cl (single isomer, unassigned) [Example 109] , write its reported ratio IC50 hV2/hV1a.
Output: 10.5

Task: Name the recorded ratio IC50 hV2/hV1a of the item O=C1CC[C@@H](c2nc(Cn3nc(-c4ccc(Cl)cc4)n(C[C@H](O)C(F)(F)F)c3=O)nn2-c2ccccc2Cl)N1 [Example 102] in your answer.
Output: 4.8

Task: Specify measured ratio IC50 hV2/hV1a for O=C1NC(c2nc(Cn3nc(-c4ccc(Cl)cc4)n(C[C@H](O)C(F)(F)F)c3=O)nn2-c2ncccc2OC(F)(F)F)CO1 (single isomer, unassigned) [Example 118] .
Output: 22.7

Task: Answer with reported ratio IC50 hV2/hV1a of O=C1CC[C@H](c2nc(Cn3nc(-c4ccc(Cl)cc4)n(C[C@H](O)C(F)(F)F)c3=O)nn2-c2ccccc2Cl)N1 [Example 101]
Output: 4.9

Task: Hello, please tell me recorded ratio IC50 hV2/hV1a for this one: CC(=O)NC(C)c1nc(Cn2nc(-c3ccc(Cl)cc3)n(C[C@H](O)C(F)(F)F)c2=O)nn1-c1ccccc1Cl (mixture of isomers) [Example 64]
Output: 9.8

Task: # return recorded ratio IC50 hV2/hV1a for entry CCNC(=O)OCc1nc(Cn2nc(-c3ccc(Cl)cc3)n(C[C@H](O)C(F)(F)F)c2=O)nn1-c1ccccc1C(F)(F)F [Example 49]
Output: 16.9

Task: // fetch ratio IC50 hV2/hV1a given entry CC(NS(C)(=O)=O)c1nc(Cn2nc(-c3ccc(Cl)cc3)n(C[C@H](O)C(F)(F)F)c2=O)nn1-c1ccccc1Cl (mixture of isomers) [Example 67]
Output: 2.9

Task: Name the recorded ratio IC50 hV2/hV1a of the compound listed here: Cc1ccccc1-n1nc(Cn2nc(-c3ccc(Cl)cc3)n(C[C@H](O)C(F)(F)F)c2=O)nc1COC(N)=O [Example 37]
Output: 8.6
